experiment.description: Solubility in PBS after overnight incubation by nephelometry
Format: physicochemical
readout.type: solubility kinetic (µM)

O=C1c2cc3ccccc3cc2C(=O)c2c1oc1c2c(=O)oc2ccccc21; 35
CC(=O)Oc1cccc2c1C(=O)c1oc3c(c1C2=O)c(=O)oc1ccccc13; 35
COc1cccc2c1C(=O)c1oc3c(c1C2=O)c(=O)oc1ccccc13; 70

(a) O=C1c2cccc(O)c2C(=O)c2c1oc1c2c(=O)oc2ccccc21
(b) COc1cccc2c1C(=O)c1c(oc3c1c(=O)oc1ccccc13)C2=O
*Q* Identify the entry with the larger solubility kinetic. Options: a and b Write the label of whichever entry you select.
*A* b
(b: 70 µM, a: 14 µM)
